- subject_of_test: recombinant human NK3 receptor (Homo sapiens, UniProt P29371)
- Construct: expressed in transfected cells; host or cells: HEK293 cells, transient expression; membranes
- Sequence (P29371 whole entry): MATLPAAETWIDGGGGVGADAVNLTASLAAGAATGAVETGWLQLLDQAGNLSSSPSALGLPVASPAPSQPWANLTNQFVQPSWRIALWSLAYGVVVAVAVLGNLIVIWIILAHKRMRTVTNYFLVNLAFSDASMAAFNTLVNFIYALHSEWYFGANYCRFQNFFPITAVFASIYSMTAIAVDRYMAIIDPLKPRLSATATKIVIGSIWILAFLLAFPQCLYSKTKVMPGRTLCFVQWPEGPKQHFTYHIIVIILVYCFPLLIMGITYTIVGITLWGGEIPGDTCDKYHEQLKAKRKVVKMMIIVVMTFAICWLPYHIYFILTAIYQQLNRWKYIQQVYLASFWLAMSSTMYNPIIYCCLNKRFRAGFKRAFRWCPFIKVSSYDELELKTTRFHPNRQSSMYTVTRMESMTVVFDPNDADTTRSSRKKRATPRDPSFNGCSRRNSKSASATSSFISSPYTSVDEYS
- assay_notes: [3H]SR142801 competition binding assay
pKi: −log10 of the molar value.
Quick reference: pKi of the listed items.

molecule: CC(C)COC(=O)N(C)[C@@H]1CN(C(=O)C2CCN(c3ccc(C#N)cn3)CC2)C[C@H]1c1ccc(Cl)cc1 [Example 139]
pKi: 8.41
--
molecule: CN(C(=O)Oc1ccc(F)cc1F)[C@@H]1CN(C(=O)C2CCN(c3ccc(C#N)cn3)CC2)C[C@H]1c1ccc(Cl)cc1 [Example 208]
pKi: 9.40
--
molecule: CN(C(=O)Oc1ccc(F)cc1)[C@@H]1CN(C(=O)C2CCOCC2)C[C@H]1c1ccc(Cl)cc1 [Example 90]
pKi: 8.10
--
molecule: CN(C(=O)O[C@H]1C[C@H]2CC[C@@H]1C2)[C@H]1CN(C(=O)C2CCN(C(=O)C3(C)CC3)CC2)C[C@@H]1c1ccc(Cl)c(Cl)c1 (mixture of isomers) [Example 68]
pKi: 7.20
--
molecule: CC(=O)Oc1ccc(N2CCC(C(=O)N3C[C@@H](N(C)C(=O)Oc4ccc(F)cc4)[C@H](c4ccc(Cl)cc4)C3)CC2)nc1 [Example 321]
pKi: 8.62
--
molecule: Cc1ccc(OC(=O)N(C)[C@H]2CN(C(=O)C3CCN(CC4CC4)CC3)C[C@@H]2c2ccc(Cl)c(Cl)c2)cc1 (racemic) [Example 8]
pKi: 8.40

====

- subject_of_test: recombinant human NK3 receptor (Homo sapiens)
- Construct: expressed in transfected cells; host or cells: HEK293 cells, transient expression; membranes
- assay_notes: [3H]SR142801 competition binding assay
- cond: read-out: Data Ki
quantity: Ki (nM)

compound: CN(C(=O)Oc1cc(F)cc(F)c1)[C@@H]1CN(C(=O)C2CCN(c3ccc(C#N)nc3)CC2)C[C@H]1c1ccc(Cl)cc1
quantity: Ki
numeric_result: 4.6

====

- subject_of_test: recombinant human NK3 receptor (Homo sapiens, UniProt P29371)
- Construct: expressed in transfected cells; host or cells: HEK293 cells, transient expression; membranes
- assay_notes: [3H]SR142801 competition binding assay

molecule: CN(C(=O)Oc1ccc(F)cc1)[C@H]1CN(C(=O)[C@H]2CC[C@H](O)CC2)C[C@@H]1c1ccc(Cl)c(Cl)c1 (stereo in doubt) [Example 45]
Ki (nM): 3.2
//
molecule: CN(C(=O)Oc1ccc(Cl)cc1)[C@H]1CN(C(=O)C2CCN(CC3CC3)CC2)C[C@@H]1c1ccc(Cl)c(Cl)c1 (racemic) [Example 10]
Ki (nM): 1.5
//
molecule: CN(C(=O)Oc1ccc(F)cc1)[C@@H]1CN(C(=O)C2CCN(C(=O)c3ccc(C(F)(F)F)cn3)CC2)C[C@H]1c1ccc(Cl)c(Cl)c1 [Example 279]
Ki (nM): 2
//
molecule: CN(C(=O)Oc1ccc(F)cc1)[C@@H]1CN(C(=O)C2CCN(C(=O)OC(C)(C)C)C2)C[C@H]1c1ccc(Cl)cc1 (stereo partly drawn) [Example 151]
Ki (nM): 18.2
//
molecule: CN(C(=O)Oc1ccc(Cl)cc1)[C@@H]1CN(C(=O)C2CCN(C(=O)C3(C)CC3)CC2)C[C@H]1c1ccc(Cl)c(Cl)c1 [Example 19]
Ki (nM): 0.2
//
molecule: CN(C(=O)Oc1ccc(F)cc1)[C@H]1CN(C(=O)C2CCN(C(=O)C3(C)CC3)CC2)C[C@@H]1c1ccc(Cl)c(Cl)c1 (racemic) [Example 2]
Ki (nM): 0.4

Values compiled from patent US9226916B2.
